Form field: abundance fitness (one value per entry).
B1: E3 ubiquitin-protein ligase NEDD4-like, residues 539 to 589; numbered along this chain, Q96PU5 (parent)
chain: KTSLNPNDLGPLPPGWEERIHLDGRTFYIDHNSKITQWEDPRLQNPAITGP

Variants of: B1
ASSAY_PROTOCOL: abundance fitness (aPCA) (normalised: wild type 0, dead -1); higher = more abundant; growth selection in yeast, the domain comes from the species named
TEST_CONTEXT: Homo sapiens
Write the value as a bare number.

Before answering, review these 2 worked examples.
Record D30V . Reported abundance fitness: -1.03

get_value(item= P13Y , readout=abundance fitness) returns -0.023

Now look at this one.
P41S yielded abundance fitness of -0.827
